- assay.target: human GABAB1 and GABAB2 receptor subunits (Homo sapiens, UniProt O75899+Q9UBS5)
- Construct: expressed in transfected cells; host or cells: CHO cells
- Sequence (Q9UBS5 15-961 limits assumed): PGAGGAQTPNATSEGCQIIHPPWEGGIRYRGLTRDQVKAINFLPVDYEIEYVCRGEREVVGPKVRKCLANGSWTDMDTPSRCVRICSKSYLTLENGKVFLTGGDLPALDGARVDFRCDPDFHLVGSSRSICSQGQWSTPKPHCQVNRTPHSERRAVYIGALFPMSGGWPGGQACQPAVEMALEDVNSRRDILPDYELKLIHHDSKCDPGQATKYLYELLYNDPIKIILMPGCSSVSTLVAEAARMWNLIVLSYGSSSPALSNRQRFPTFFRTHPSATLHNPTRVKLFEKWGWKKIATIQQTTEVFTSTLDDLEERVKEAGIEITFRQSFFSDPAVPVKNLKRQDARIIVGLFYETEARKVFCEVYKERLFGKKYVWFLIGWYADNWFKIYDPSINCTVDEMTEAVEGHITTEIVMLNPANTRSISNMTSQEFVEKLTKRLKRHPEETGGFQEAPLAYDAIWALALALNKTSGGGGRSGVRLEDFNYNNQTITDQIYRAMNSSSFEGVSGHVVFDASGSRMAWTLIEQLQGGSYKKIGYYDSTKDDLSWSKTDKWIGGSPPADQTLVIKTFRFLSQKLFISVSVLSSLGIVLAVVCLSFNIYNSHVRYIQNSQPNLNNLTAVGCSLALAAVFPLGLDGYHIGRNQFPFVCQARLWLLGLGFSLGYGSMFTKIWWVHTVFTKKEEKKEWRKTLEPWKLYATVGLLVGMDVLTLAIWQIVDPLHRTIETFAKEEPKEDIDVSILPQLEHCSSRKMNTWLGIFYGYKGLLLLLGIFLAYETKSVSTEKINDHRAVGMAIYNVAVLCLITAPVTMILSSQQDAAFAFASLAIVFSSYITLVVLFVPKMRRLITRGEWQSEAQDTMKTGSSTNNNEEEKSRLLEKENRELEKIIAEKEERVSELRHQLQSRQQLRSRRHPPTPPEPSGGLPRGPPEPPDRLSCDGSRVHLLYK
- Sequence (O75899 42-941): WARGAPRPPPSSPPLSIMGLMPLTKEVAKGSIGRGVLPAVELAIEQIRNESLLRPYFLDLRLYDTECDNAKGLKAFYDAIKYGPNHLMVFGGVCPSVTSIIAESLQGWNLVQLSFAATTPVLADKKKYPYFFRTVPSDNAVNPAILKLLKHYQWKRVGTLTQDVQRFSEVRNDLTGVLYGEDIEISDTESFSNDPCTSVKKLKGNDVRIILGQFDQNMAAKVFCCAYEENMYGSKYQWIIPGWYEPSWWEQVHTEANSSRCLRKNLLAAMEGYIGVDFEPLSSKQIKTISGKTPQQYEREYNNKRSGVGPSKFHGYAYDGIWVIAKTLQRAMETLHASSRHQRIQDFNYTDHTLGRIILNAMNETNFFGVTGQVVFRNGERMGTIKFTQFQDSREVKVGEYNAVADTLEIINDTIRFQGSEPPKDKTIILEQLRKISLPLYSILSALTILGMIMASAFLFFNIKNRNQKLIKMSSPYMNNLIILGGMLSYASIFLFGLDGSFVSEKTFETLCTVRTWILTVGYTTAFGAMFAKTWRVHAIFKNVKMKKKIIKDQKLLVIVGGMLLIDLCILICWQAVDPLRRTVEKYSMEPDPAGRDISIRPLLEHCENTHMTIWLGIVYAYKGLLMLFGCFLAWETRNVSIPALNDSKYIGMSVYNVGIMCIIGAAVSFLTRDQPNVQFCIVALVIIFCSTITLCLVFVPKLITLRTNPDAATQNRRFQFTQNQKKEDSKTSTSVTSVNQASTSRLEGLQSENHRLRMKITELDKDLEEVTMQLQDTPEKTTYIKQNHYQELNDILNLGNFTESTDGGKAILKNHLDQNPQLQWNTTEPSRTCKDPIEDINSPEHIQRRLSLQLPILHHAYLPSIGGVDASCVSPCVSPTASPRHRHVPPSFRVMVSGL
- method.summary: Agonism and positive allosteric modulator pharmacology in vitro, two-addition FLIPR calcium assay
- Type: cell-based
- assay.context: CHO cells co-expressing Galpha16; agonism efficacy at 30 μM / GABA efficacy at 30 μM
IA (GABAB agonism) for assorted compounds
value.kind: IA (GABAB agonism)

>  <compound>
C[C@H](c1ccc(Cl)cc1)n1c(=O)c2ccc(F)cc2n(C)c1=O [Example 42]

>  <value.reported>
0.18

$$$$
>  <compound>
CC1(C)Cn2c(=O)n(Cc3ccc(Cl)cc3)c(=O)c3ccc(Cl)c(c32)O1 [Example 67]

>  <value.reported>
0.02

$$$$
>  <compound>
CC1(Cn2c(=O)n(Cc3ccc(Br)cc3)c(=O)c3cc(F)c(Cl)cc32)COC1 [Example 50]

>  <value.reported>
0.04

$$$$
>  <compound>
C[C@@H](O)Cn1c(=O)n(Cc2ccc(Cl)cc2)c(=O)c2ccc(Cl)c(F)c21 [Example 82]

>  <value.reported>
0.18

$$$$
>  <compound>
COc1c(F)cc2c(=O)n(Cc3ccc(Br)cc3)c(=O)n3c2c1OC(C)(C)C3 [Example 84]

>  <value.reported>
0.10

$$$$
>  <compound>
Cn1c(=O)n(C2(c3ccc(Cl)cc3)CC2)c(=O)c2ccc(F)cc21 [Example 43]

>  <value.reported>
0.17

$$$$
>  <compound>
CC(C)n1c(=O)n(Cc2ccc(Br)cc2)c(=O)c2ccc(F)cc21 [Example 38]

>  <value.reported>
0.13

$$$$
>  <compound>
C[C@H](c1ccc(Cl)cc1)n1c(=O)c2ccc(Cl)cc2n(CC2(C)COC2)c1=O [Example 137]

>  <value.reported>
0.05

$$$$
>  <compound>
CC(C)(O)Cn1c(=O)n(Cc2ccc(Br)cc2)c(=O)c2ccc(Cl)c(F)c21 [Example 123]

>  <value.reported>
0.13

$$$$
>  <compound>
CC(C)(C)C(=O)Cn1c(=O)n(Cc2ccc(Br)cc2)c(=O)c2ccc(F)cc21 [Example 26]

>  <value.reported>
0.08

$$$$
>  <compound>
CC(C)(O)Cn1c(=O)n(Cc2ccc(Cl)c(Cl)c2)c(=O)c2ccc(C(F)(F)F)cc21 [Example 2]

>  <value.reported>
0.14

$$$$
>  <compound>
CC(C(N)=O)n1c(=O)n(Cc2ccc(Br)cc2)c(=O)c2ccc(F)cc21 (stereo not shown) [Example 37]

>  <value.reported>
0.21

$$$$
>  <compound>
CC(C)(O)Cn1c(=O)n(Cc2ccc(Br)cc2)c(=O)c2cc(F)c(F)c(F)c21 [Example 60]

>  <value.reported>
0.20

$$$$

---

- assay.target: human GABAB1 and GABAB2 receptor subunits (Homo sapiens, UniProt O75899+Q9UBS5)
- Construct: expressed in transfected cells; host or cells: CHO cells
- method.summary: Agonism and positive allosteric modulator pharmacology in vitro, two-addition FLIPR calcium assay
- Type: cell-based
- assay.context: CHO cells co-expressing Galpha16; agonism efficacy at 30 μM / GABA efficacy at 30 μM
- Source text: CHO cells expressing the human GABAB1 and GABAB2 receptor subunits co-expressing promiscuous Galpha16 proteins to force couple the receptor to the intracellular calcium signalling pathway were used to study GABAB pharmacology in vitro. […] The day before the experiment the cells were detached and plated into black-walled clear bottom 384-well plates at a cell density of 20 000 cells per well. […] The samples were excited at 470-495 nm and emission was detected at 515-575 nm. […]

>  <compound>
CC(C)(O)Cn1c(=O)n(Cc2ccc(Br)cc2)c(=O)c2cc(F)c(Cl)cc21 [Example 49]

>  <assay.target>
human GABAB1 and GABAB2 receptor subunits (Homo sapiens, UniProt O75899+Q9UBS5)

>  <IA (GABAB agonism)>
0.28

$$$$
>  <compound>
CC1(C)Cn2c(=O)n(Cc3ccc(Br)cc3)c(=O)c3ccc(Cl)c(c32)O1 [Example 127]

>  <assay.target>
human GABAB1 and GABAB2 receptor subunits (Homo sapiens, UniProt O75899+Q9UBS5)

>  <IA (GABAB agonism)>
0.02

$$$$
>  <compound>
Cn1c(=O)n(C2CCCc3ccccc32)c(=O)c2ccc(C(F)(F)F)cc21 (centres unmarked) [Example 12]

>  <assay.target>
human GABAB1 and GABAB2 receptor subunits (Homo sapiens, UniProt O75899+Q9UBS5)

>  <IA (GABAB agonism)>
0.20

$$$$
>  <compound>
CC(C)(O)Cn1c(=O)n(Cc2ccc(Cl)c(Oc3ccccc3)c2)c(=O)c2ccc(F)cc21 [Example 41]

>  <assay.target>
human GABAB1 and GABAB2 receptor subunits (Homo sapiens, UniProt O75899+Q9UBS5)

>  <IA (GABAB agonism)>
0.10

$$$$
>  <compound>
CCn1c(=O)n(Cc2ccc(Br)cc2)c(=O)c2ccc(F)cc21 [Example 87]

>  <assay.target>
human GABAB1 and GABAB2 receptor subunits (Homo sapiens, UniProt O75899+Q9UBS5)

>  <IA (GABAB agonism)>
0.11

$$$$
>  <compound>
CC1(C)Cn2c(=O)n(Cc3ccc(Br)cc3)c(=O)c3cc(F)c(F)c(c32)O1 [Example 66]

>  <assay.target>
human GABAB1 and GABAB2 receptor subunits (Homo sapiens, UniProt O75899+Q9UBS5)

>  <IA (GABAB agonism)>
0.04

$$$$
>  <compound>
Cn1c(=O)n(Cc2ccc(Br)cc2)c(=O)c2ccc(F)cc21 [Example 33]

>  <assay.target>
human GABAB1 and GABAB2 receptor subunits (Homo sapiens, UniProt O75899+Q9UBS5)

>  <IA (GABAB agonism)>
0.23

$$$$
>  <compound>
CC(C)(O)Cn1c(=O)n(Cc2ccc(Cl)cc2)c(=O)c2cc(Cl)cc(F)c21 [Example 131]

>  <assay.target>
human GABAB1 and GABAB2 receptor subunits (Homo sapiens, UniProt O75899+Q9UBS5)

>  <IA (GABAB agonism)>
0.19

$$$$
